measuredTarget: 5-HT2B (h) (Homo sapiens)
Sequence (P41595 whole entry): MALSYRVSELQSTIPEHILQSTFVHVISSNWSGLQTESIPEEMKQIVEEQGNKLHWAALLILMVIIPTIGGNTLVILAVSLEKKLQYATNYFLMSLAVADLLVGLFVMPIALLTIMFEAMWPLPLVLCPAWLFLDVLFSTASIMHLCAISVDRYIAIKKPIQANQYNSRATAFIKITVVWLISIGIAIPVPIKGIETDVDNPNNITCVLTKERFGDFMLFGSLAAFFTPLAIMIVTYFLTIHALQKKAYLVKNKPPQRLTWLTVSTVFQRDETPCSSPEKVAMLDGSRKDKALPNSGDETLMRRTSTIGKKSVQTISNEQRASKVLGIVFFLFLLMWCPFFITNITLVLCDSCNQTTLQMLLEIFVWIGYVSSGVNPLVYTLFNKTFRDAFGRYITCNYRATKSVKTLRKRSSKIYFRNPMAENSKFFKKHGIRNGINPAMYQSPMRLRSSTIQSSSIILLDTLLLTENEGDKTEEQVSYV
assayText: 5-HT2B (h) (agonist radioligand)
conditionLabel: read-out: Inhibition 5-HT2B (h) (agonist radioligand)
Rule: inhibition at 10 µM under 20% gives False, otherwise True.

# cpdSmiles, class
data = [
    ("O=C(O[C@H](CO)C(F)(F)F)N1CC2(CC(CC3=C4C=CC=[N+]4[B-](F)(F)n4cccc43)C2)C1", "True"),
    ("O=C(OC(C(F)(F)F)C(F)(F)F)N1CC2(CC(CC3=C4C=CC=[N+]4[B-](F)(F)n4cccc43)C2)C1", "False"),
    ("O=C(N1CC2(CC(CC3=C4C=CC=[N+]4[B-](F)(F)n4cccc43)C2)C1)N1CC2(CC(n3cnc(C4CC4)n3)C2)C1", "False"),
    ("O=C(OC(C(F)(F)F)C(F)(F)F)N1CC2(CC(CC3=C4C=CC(c5ccc[nH]5)=[N+]4[B-](F)(F)n4cccc43)C2)C1", "True"),
    ("O=C1CO[C@H]2CCN(C(=O)N3CC4(CC(CC5=C6C=CC(c7ccc[nH]7)=[N+]6[B-](F)(F)n6cccc65)C4)C3)C[C@H]2N1", "True"),
]

---

measuredTarget: beta1 (h) (Homo sapiens)
Sequence (P08588 whole entry): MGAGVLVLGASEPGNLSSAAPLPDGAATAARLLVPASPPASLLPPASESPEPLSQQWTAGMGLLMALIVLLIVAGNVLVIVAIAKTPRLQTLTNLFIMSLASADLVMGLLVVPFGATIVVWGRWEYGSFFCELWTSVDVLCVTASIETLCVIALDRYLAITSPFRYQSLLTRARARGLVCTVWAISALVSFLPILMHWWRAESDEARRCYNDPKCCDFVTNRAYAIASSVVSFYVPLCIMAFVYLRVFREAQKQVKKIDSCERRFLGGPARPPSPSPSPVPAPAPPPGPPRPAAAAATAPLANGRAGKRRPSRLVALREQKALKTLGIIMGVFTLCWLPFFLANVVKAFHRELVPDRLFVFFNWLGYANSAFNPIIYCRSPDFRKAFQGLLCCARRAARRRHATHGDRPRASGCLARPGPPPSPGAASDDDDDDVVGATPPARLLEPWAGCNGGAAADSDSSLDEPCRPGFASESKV
assayText: beta1 (h) (agonist radioligand)
conditionLabel: read-out: Inhibition beta1 (h) (agonist radioligand)
Reported inhibition at 10 µM values for the following compounds.

# cpdSmiles, inhibition at 10 µM, %
records = [
    ("O=C(O[C@H](CO)C(F)(F)F)N1CC2(CC(CC3=C4C=CC=[N+]4[B-](F)(F)n4cccc43)C2)C1", -3.3),
    ("O=C(OC(C(F)(F)F)C(F)(F)F)N1CC2(CC(CC3=C4C=CC(c5ccc[nH]5)=[N+]4[B-](F)(F)n4cccc43)C2)C1", -3.3),
    ("O=C(OC(C(F)(F)F)C(F)(F)F)N1CC2(CC(CC3=C4C=CC=[N+]4[B-](F)(F)n4cccc43)C2)C1", -1.7),
    ("O=C(N1CC2(CC(CC3=C4C=CC=[N+]4[B-](F)(F)n4cccc43)C2)C1)N1CC2(CC(n3cnc(C4CC4)n3)C2)C1", 0.6),
    ("O=C1CO[C@H]2CCN(C(=O)N3CC4(CC(CC5=C6C=CC(c7ccc[nH]7)=[N+]6[B-](F)(F)n6cccc65)C4)C3)C[C@H]2N1", -1.2),
]

---

measuredTarget: UniProt P25021
Sequence (P25021 whole entry): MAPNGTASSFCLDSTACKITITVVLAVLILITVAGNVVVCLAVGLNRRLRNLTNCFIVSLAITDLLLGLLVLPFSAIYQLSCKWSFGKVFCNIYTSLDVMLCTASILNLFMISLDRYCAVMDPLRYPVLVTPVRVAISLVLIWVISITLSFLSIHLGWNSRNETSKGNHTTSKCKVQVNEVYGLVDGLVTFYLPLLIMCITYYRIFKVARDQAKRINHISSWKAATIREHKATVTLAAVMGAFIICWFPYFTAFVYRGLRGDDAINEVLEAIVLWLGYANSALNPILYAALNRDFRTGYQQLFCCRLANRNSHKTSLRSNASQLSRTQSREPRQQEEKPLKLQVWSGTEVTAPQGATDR
assayText: H2 (h) (antagonist radioligand)
conditionLabel: read-out: Inhibition H2 (h) (antagonist radioligand)
Reported inhibition at 10 µM values for the following compounds.
testReadout: inhibition at 10 µM (%)

# compound, testReadout, assayResult
data = [
    ("O=C(N1CC2(CC(CC3=C4C=CC=[N+]4[B-](F)(F)n4cccc43)C2)C1)N1CC2(CC(n3cnc(C4CC4)n3)C2)C1 [Compound 5]", "inhibition at 10 µM", -1.9),
    ("O=C1CO[C@H]2CCN(C(=O)N3CC4(CC(CC5=C6C=CC(c7ccc[nH]7)=[N+]6[B-](F)(F)n6cccc65)C4)C3)C[C@H]2N1 [Compound 4a]", "inhibition at 10 µM", -34.8),
    ("O=C(O[C@H](CO)C(F)(F)F)N1CC2(CC(CC3=C4C=CC=[N+]4[B-](F)(F)n4cccc43)C2)C1 [Compound 1]", "inhibition at 10 µM", -10.7),
    ("O=C(OC(C(F)(F)F)C(F)(F)F)N1CC2(CC(CC3=C4C=CC(c5ccc[nH]5)=[N+]4[B-](F)(F)n4cccc43)C2)C1 [Compound 2a]", "inhibition at 10 µM", -48.6),
    ("O=C(OC(C(F)(F)F)C(F)(F)F)N1CC2(CC(CC3=C4C=CC=[N+]4[B-](F)(F)n4cccc43)C2)C1 [Compound 2]", "inhibition at 10 µM", -18.7),
]
